# viability at 48 h, 220 µM annotations
Assay: MTT relative viability, PhTERT-SEAP (H1299) cells
Conditions: human

Some compounds with known viability at 48 h, 220 µM results, for comparison:
INSERT INTO measurements (smiles_notation, assay_endpoint, reported) VALUES
  ('Nc1ccc(Sc2cccc3c2C(=O)c2cccc(Sc4ccc(N)cc4)c2C3=O)cc1', 'viability at 48 h, 220 µM', '42%'),
  ('O=C1c2cccc(SCCc3ccccc3)c2C(=O)c2cccc(SCCc3ccccc3)c21', 'viability at 48 h, 220 µM', '27%');

Supply reported viability at 48 h, 220 µM belonging to this compound: Nc1ccccc1Sc1cccc2c1C(=O)c1cccc(Sc3ccccc3N)c1C2=O 14%
